Data provenance is the supplement of paper PMC11908140.

B1: library; numbered along this chain (parent)
chain: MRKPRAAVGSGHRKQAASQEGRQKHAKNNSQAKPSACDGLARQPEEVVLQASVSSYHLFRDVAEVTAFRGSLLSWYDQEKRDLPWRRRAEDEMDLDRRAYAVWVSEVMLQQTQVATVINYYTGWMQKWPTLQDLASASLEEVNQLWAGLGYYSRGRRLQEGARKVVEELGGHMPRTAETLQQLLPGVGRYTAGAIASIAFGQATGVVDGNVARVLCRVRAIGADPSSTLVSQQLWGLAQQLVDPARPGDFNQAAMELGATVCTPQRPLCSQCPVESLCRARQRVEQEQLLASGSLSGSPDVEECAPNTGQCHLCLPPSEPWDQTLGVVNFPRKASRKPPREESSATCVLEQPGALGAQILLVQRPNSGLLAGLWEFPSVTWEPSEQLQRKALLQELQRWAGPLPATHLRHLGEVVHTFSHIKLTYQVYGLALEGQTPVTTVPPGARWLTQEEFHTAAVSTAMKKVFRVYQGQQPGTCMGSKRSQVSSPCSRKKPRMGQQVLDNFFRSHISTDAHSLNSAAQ

- Variants of: B1
- Run Description: 8OG:A repair function score (normalized; synonymous = 0, nonsense = -1) (normalized log-likelihood score); higher = more repair activity (WT-like);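 further: cells sorted at 72 h after reporter transfection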
- Study Conditions: with 8OG:A DNA repair reporter (GFP) in HEK-293 MUTYH KO cells
Label class 1 when 8OG:A repair function score is at or above -0.06; otherwise label class 0.

Residue Change | Assigned Class
G297R | class 0

API: above_or_equal(metric=8OG:A repair function score, cutoff=-0.06) for item Q521M
class 1

API: above_or_equal(metric=8OG:A repair function score, cutoff=-0.06) for item Q50H
class 1

API: above_or_equal(metric=8OG:A repair function score, cutoff=-0.06) for item T476M
class 1

API: above_or_equal(metric=8OG:A repair function score, cutoff=-0.06) for item L313A
class 0

API: above_or_equal(metric=8OG:A repair function score, cutoff=-0.06) for item N366V
class 0

API: above_or_equal(metric=8OG:A repair function score, cutoff=-0.06) for item T460Q
class 0

API: above_or_equal(metric=8OG:A repair function score, cutoff=-0.06) for item Q181R
class 1

API: above_or_equal(metric=8OG:A repair function score, cutoff=-0.06) for item M478K
class 1

API: above_or_equal(metric=8OG:A repair function score, cutoff=-0.06) for item C216A
class 0

API: above_or_equal(metric=8OG:A repair function score, cutoff=-0.06) for item N119H
class 1

API: above_or_equal(metric=8OG:A repair function score, cutoff=-0.06) for item V414M
class 0

API: above_or_equal(metric=8OG:A repair function score, cutoff=-0.06) for item G372S
class 0

API: above_or_equal(metric=8OG:A repair function score, cutoff=-0.06) for item Q233L
class 1

API: above_or_equal(metric=8OG:A repair function score, cutoff=-0.06) for item Q265M
class 0

API: above_or_equal(metric=8OG:A repair function score, cutoff=-0.06) for item A345R
class 0

API: above_or_equal(metric=8OG:A repair function score, cutoff=-0.06) for item F418M
class 1

API: above_or_equal(metric=8OG:A repair function score, cutoff=-0.06) for item G123F
class 1

API: above_or_equal(metric=8OG:A repair function score, cutoff=-0.06) for item V485D
class 1

API: above_or_equal(metric=8OG:A repair function score, cutoff=-0.06) for item E452R
class 1

API: above_or_equal(metric=8OG:A repair function score, cutoff=-0.06) for item D94P
class 0

API: above_or_equal(metric=8OG:A repair function score, cutoff=-0.06) for item V427A
class 0
